src = patent US8440646B1

test system: B. cereus 98/2620; assay: microbe, parasite or virus in culture; type: cell-based; conditions: Bacillus cereus
I'd appreciate it if you could supply MIC values for the items below.
Kindly provide the numeric value in µg/mL only, without the unit symbol.

Query: Kindly state the measured MIC obtained for CO/N=C(\C(=O)N[C@@H]1C(=O)N2C(C(=O)O)=C(COC(C)=O)CS[C@H]12)c1csc(N)n1 with B. cereus 98/2620.
Result: 64

Query: Cool, now CN(C)C1C(O)=C(C(N)=O)C(=O)C2(O)C(O)=C3C(=O)c4c(O)cccc4C(C)(O)C3CC12 (stereo not drawn) [Tetracycline, reference compound]
Result: 32

Query: Same read-out for CC[C@H]1OC(=O)[C@H](C)[C@@H](O[C@H]2C[C@@](C)(OC)[C@@H](O)[C@H](C)O2)[C@H](C)[C@@H](O[C@@H]2O[C@H](C)C[C@H](N(C)C)[C@H]2O)[C@](C)(O)C[C@@H](C)C(=O)[C@H](C)[C@@H](O)[C@]1(C)O ?
Result: 0.06
